Please respond with reported inhibition at 100 µg/mL for every item in the list.
- MEASUREMENT_TARGET: acetylcholinesterase (AChE) (Electrophorus electricus, UniProt O42275)
- Sequence (O42275 24-633): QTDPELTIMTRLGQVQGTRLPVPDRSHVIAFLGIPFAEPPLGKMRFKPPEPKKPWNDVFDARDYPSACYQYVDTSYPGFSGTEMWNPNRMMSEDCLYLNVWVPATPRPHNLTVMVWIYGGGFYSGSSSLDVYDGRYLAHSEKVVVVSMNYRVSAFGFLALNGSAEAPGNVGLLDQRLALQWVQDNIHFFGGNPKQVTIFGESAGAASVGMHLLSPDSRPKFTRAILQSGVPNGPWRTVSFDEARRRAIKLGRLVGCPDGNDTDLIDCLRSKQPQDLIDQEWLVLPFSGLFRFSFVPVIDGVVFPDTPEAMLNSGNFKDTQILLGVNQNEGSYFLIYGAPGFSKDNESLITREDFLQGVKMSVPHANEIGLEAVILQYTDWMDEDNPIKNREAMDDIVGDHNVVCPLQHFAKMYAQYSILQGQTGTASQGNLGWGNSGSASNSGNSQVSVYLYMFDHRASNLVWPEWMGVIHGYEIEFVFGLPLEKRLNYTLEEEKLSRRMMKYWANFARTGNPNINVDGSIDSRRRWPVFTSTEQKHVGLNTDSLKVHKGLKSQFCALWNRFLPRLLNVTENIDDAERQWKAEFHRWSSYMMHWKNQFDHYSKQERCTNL
- EXPERIMENT_SUMMARY: biochemical
- PARTICULARS: read-out: percentage inhibition of AChE, at 100 µg/mL
Answer in %, number only, no unit symbol.

Q. I would be grateful if you could share the reported inhibition at 100 µg/mL for CC[C@H](CC[C@@H](C)[C@H]1CC[C@H]2[C@@H]3CC=C4C[C@@H](O[C@@H]5O[C@H](CO)[C@@H](O)[C@H](O)[C@H]5O)CC[C@]4(C)[C@H]3CC[C@]12C)C(C)C [β-Sitosterol glucoside, 3β-O-D-glucopyranosyl-β-sitosterol] .
A. 30.4

Q. And for CC1=C[C@H]2OC3OC(=O)[C@@]4(C)CCC[C@@]3([C@@H]24)[C@H]1CC(=O)c1ccoc1 ?
A. 24.8

Q. Next compound up: CC1=CC2OC3OCC4(CCCC3(C)C24)C1CC(=O)c1ccoc1 (centres unmarked)
A. 20.4

Q. Param item: CC1=C[C@H]2OC(=O)[C@@]3(C)CCC[C@@](C)([C@@H]23)[C@H]1CC(=O)c1ccoc1
A. 40.2

Q. Quick one: CC[C@H](/C=C/[C@@H](C)[C@H]1CC[C@H]2[C@@H]3CC=C4C[C@@H](O[C@@H]5O[C@H](CO)[C@@H](O)[C@H](O)[C@H]5O)CC[C@]4(C)[C@H]3CC[C@]12C)C(C)C [Stigmasterol glucoside, Stigmasterol 3-O-β-D-glucopyranoside]
A. 25.2

###

- MEASUREMENT_TARGET: butyrylcholinesterase (BChE) (Equus caballus)
- Sequence (P81908 whole entry): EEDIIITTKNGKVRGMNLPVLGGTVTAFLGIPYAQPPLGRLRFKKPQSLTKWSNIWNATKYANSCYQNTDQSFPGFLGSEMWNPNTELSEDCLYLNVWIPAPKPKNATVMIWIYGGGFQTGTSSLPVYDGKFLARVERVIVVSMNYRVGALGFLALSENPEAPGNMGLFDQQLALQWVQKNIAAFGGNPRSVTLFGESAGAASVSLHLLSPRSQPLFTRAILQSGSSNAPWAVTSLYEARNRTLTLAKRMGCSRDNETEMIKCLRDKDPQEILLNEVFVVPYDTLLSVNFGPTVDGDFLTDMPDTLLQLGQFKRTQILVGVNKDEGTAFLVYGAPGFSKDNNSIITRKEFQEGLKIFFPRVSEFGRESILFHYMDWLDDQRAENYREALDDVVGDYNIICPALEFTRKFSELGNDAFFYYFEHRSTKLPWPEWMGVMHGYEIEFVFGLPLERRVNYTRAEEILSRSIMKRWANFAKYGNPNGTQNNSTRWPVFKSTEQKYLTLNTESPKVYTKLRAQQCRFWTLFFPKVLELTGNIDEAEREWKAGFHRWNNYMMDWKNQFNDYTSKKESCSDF
- EXPERIMENT_SUMMARY: biochemical
- PARTICULARS: read-out: percentage inhibition of BChE
Please provide measured inhibition at 100 µg/mL for the entries that follow.
I only need the number, in %, no unit after it.

Q. # lookup: inhibition at 100 µg/mL of COc1ccc2c3c1O[C@H]1C[C@@H](O)C=C[C@@]31CCN(C)C2 [Galantamine, galantamine, reference compound]
A. 73.8

Q. Lookup CC1=C[C@H]2OC3OC(=O)[C@@]4(C)CCC[C@@]3([C@@H]24)[C@H]1CC(=O)c1ccoc1
A. 61.8

Q. What about CC1=CC2OC3OCC4(CCCC3(C)C24)C1CC(=O)c1ccoc1 (stereo not shown) ?
A. 52.8

Q. Another molecule: CC1=C[C@H]2OC(=O)[C@@]3(C)CCC[C@@](C)([C@@H]23)[C@H]1CC(=O)c1ccoc1
A. 64.8

###

- MEASUREMENT_TARGET: α-glucosidase
- EXPERIMENT_SUMMARY: α-glucosidase inhibitory activity (PNPG substrate)
- PARTICULARS: mean ± SEM of three measurements; highest test concentration 100 µg/mL
MEASURED_METRIC: IC50 α-Glucosidase (µg/mL)
# number only, unit µg/mL dropped from output

Q. Dear colleague, I am looking for the recorded IC50 α-Glucosidase of the following compound: C=C(C)[C@@H]1CC[C@]2(C)CC[C@]3(C)[C@H](CC[C@@H]4[C@@]5(C)CC[C@H](O)C(C)(C)[C@@H]5CC[C@]43C)[C@@H]12
A. 69.75

Q. Moving on to CC1=C[C@H]2OC3OC(=O)[C@@]4(C)CCC[C@@]3([C@@H]24)[C@H]1CC(=O)c1ccoc1
A. 71.41

Q. Entry to check: CC1=C[C@H]2OC(=O)[C@@]3(C)CCC[C@@](C)([C@@H]23)[C@H]1CC(=O)c1ccoc1
A. 99.25

Q. Then what about the compound CC1=CC2OC3OCC4(CCCC3(C)C24)C1CC(=O)c1ccoc1 (stereo not drawn) ?
A. 76.33

###

- MEASUREMENT_TARGET: acetylcholinesterase (AChE) (Electrophorus electricus, UniProt O42275)
- PARTICULARS: read-out: IC50 ± SEM (Acetylcholinesterase); Table 2 prints no unit; repeats Table 1 values
MEASURED_METRIC: IC50

Q. // lookup IC50 for CC1=C[C@H]2OC3OC(=O)[C@@]4(C)CCC[C@@]3([C@@H]24)[C@H]1CC(=O)c1ccoc1
A. > 292 µM

Q. Now give it for CC1=C[C@H]2OC(=O)[C@@]3(C)CCC[C@@](C)([C@@H]23)[C@H]1CC(=O)c1ccoc1 too.
A. > 304 µM

Q. Repeat with CC1=CC2OC3OCC4(CCCC3(C)C24)C1CC(=O)c1ccoc1 (stereo not drawn)
A. > 304 µM

###

- MEASUREMENT_TARGET: butyrylcholinesterase (BChE) (Equus caballus)
MEASURED_METRIC: pIC50
# reply with the number alone; pIC50 is -log10 of concentration in mol/L

Q. # query: pIC50 of entry CC1=CC2OC3OCC4(CCCC3(C)C24)C1CC(=O)c1ccoc1 (stereo not drawn) [Hypopurin E]
A. 3.58

Q. Check CC1=C[C@H]2OC(=O)[C@@]3(C)CCC[C@@](C)([C@@H]23)[C@H]1CC(=O)c1ccoc1 [Hypopurin A] too.
A. 3.75

Q. Then CC1=C[C@H]2OC3OC(=O)[C@@]4(C)CCC[C@@]3([C@@H]24)[C@H]1CC(=O)c1ccoc1 [Hypopurin B] ?
A. 3.71

###

Provide the reported percentage inhibition of α-glucosidase of each item.
- Test system: α-glucosidase
- EXPERIMENT_SUMMARY: α-glucosidase inhibitory activity (PNPG substrate)
- PARTICULARS: at 100 µg/mL
Supply the numeric figure in %, leaving out any unit text.

Q. Field: percentage inhibition of α-glucosidase (α-glucosidase). Entry: CC1=C[C@H]2OC3OC(=O)[C@@]4(C)CCC[C@@]3([C@@H]24)[C@H]1CC(=O)c1ccoc1
A. 51.95

Q. Input CC1=C[C@H]2OC(=O)[C@@]3(C)CCC[C@@](C)([C@@H]23)[C@H]1CC(=O)c1ccoc1
A. 50.13

Q. Lookup C=C(C)[C@@H]1CC[C@]2(C)CC[C@]3(C)[C@H](CC[C@@H]4[C@@]5(C)CC[C@H](O)C(C)(C)[C@@H]5CC[C@]43C)[C@@H]12
A. 60.91

Q. And what about the compound C[C@H]1O[C@H](O[C@H]2[C@H](O)[C@@H](O)[C@@H](O[C@H]3[C@H](O)[C@@H](O)C(O)O[C@@H]3CO)O[C@@H]2CO)[C@H](O)[C@@H](O)[C@@H]1N[C@H]1C=C(CO)[C@@H](O)[C@H](O)[C@H]1O (some centres unmarked) [Acarbose, acarbose, reference compound] ?
A. 51.35

Q. Queued: CC1=CC2OC3OCC4(CCCC3(C)C24)C1CC(=O)c1ccoc1 (centres unmarked)
A. 54.79

###

Kindly supply the reported pIC50 values for the records listed here.
- MEASUREMENT_TARGET: acetylcholinesterase (AChE) (Electrophorus electricus)
- EXPERIMENT_SUMMARY: biochemical
pIC50: −log10 of the molar value.

Q. Entry CC1=CC2OC3OCC4(CCCC3(C)C24)C1CC(=O)c1ccoc1 (stereo not drawn) [Hypopurin E] has what pIC50?
A. < 3.52

Q. Check CC[C@H](/C=C/[C@@H](C)[C@H]1CC[C@H]2[C@@H]3CC=C4C[C@@H](O[C@@H]5O[C@H](CO)[C@@H](O)[C@H](O)[C@H]5O)CC[C@]4(C)[C@H]3CC[C@]12C)C(C)C [Stigmasterol glucoside, Stigmasterol 3-O-β-D-glucopyranoside] too.
A. < 3.76

Q. And then CC1=C[C@H]2OC(=O)[C@@]3(C)CCC[C@@](C)([C@@H]23)[C@H]1CC(=O)c1ccoc1 [Hypopurin A] , what is it?
A. < 3.52

Q. Next record, please: CC1=C[C@H]2OC3OC(=O)[C@@]4(C)CCC[C@@]3([C@@H]24)[C@H]1CC(=O)c1ccoc1 [Hypopurin B]
A. < 3.53

Q. Also need CC[C@H](CC[C@@H](C)[C@H]1CC[C@H]2[C@@H]3CC=C4C[C@@H](O[C@@H]5O[C@H](CO)[C@@H](O)[C@H](O)[C@H]5O)CC[C@]4(C)[C@H]3CC[C@]12C)C(C)C [β-Sitosterol glucoside, 3β-O-D-glucopyranosyl-β-sitosterol] , thanks.
A. < 3.76

Q. Follow-up entry: C=C(C)[C@@H]1CC[C@]2(C)CC[C@]3(C)[C@H](CC[C@@H]4[C@@]5(C)CC[C@H](O)C(C)(C)[C@@H]5CC[C@]43C)[C@@H]12 [Lupeol]
A. < 3.63

###

- MEASUREMENT_TARGET: butyrylcholinesterase (BChE) (Equus caballus)
pIC50: −log10 of the molar value.
MEASURED_METRIC: pIC50

Q. What value of pIC50 has been reported for the following compound? CC[C@H](/C=C/[C@@H](C)[C@H]1CC[C@H]2[C@@H]3CC=C4C[C@@H](O[C@@H]5O[C@H](CO)[C@@H](O)[C@H](O)[C@H]5O)CC[C@]4(C)[C@H]3CC[C@]12C)C(C)C [Stigmasterol glucoside, Stigmasterol 3-O-β-D-glucopyranoside]
A. < 3.76

Q. Lookup CC[C@H](CC[C@@H](C)[C@H]1CC[C@H]2[C@@H]3CC=C4C[C@@H](O[C@@H]5O[C@H](CO)[C@@H](O)[C@H](O)[C@H]5O)CC[C@]4(C)[C@H]3CC[C@]12C)C(C)C [β-Sitosterol glucoside, 3β-O-D-glucopyranosyl-β-sitosterol]
A. < 3.76

Q. Please answer likewise for C=C(C)[C@@H]1CC[C@]2(C)CC[C@]3(C)[C@H](CC[C@@H]4[C@@]5(C)CC[C@H](O)C(C)(C)[C@@H]5CC[C@]43C)[C@@H]12
A. < 3.63
